Attribute measured: melting point

{"columns": ["Compound", "Result"],
 "data": [
  ["CCOC(Cc1ccc(OCCCc2nc(CC)oc2C)c2ccccc12)C(=O)O (racemic) [Example 65]", "113 to 117 °C"],
  ["CCOC(Cc1ccc(OCCCc2nc(C(C)(C)C)oc2C)c2ccccc12)C(=O)O (racemic) [Example 56]", "138 to 140 °C"],
  ["CCCOC(Cc1ccc(OCCc2nc(C3CCCCC3)oc2C)c2ccccc12)C(=O)O (stereo not shown) [Example 28]", "106 to 107 °C"],
  ["CCOC(Cc1ccc(OCCCc2nc(C(C)(C)C)oc2C)c2ccsc12)C(=O)O (racemic) [Example 54]", "125 to 126 °C"]
]}
